- TEST_TARGET: T1, MIM-GFP (murine, UniProt Q8R1S4 1-759)
- T1 sequence (looked up): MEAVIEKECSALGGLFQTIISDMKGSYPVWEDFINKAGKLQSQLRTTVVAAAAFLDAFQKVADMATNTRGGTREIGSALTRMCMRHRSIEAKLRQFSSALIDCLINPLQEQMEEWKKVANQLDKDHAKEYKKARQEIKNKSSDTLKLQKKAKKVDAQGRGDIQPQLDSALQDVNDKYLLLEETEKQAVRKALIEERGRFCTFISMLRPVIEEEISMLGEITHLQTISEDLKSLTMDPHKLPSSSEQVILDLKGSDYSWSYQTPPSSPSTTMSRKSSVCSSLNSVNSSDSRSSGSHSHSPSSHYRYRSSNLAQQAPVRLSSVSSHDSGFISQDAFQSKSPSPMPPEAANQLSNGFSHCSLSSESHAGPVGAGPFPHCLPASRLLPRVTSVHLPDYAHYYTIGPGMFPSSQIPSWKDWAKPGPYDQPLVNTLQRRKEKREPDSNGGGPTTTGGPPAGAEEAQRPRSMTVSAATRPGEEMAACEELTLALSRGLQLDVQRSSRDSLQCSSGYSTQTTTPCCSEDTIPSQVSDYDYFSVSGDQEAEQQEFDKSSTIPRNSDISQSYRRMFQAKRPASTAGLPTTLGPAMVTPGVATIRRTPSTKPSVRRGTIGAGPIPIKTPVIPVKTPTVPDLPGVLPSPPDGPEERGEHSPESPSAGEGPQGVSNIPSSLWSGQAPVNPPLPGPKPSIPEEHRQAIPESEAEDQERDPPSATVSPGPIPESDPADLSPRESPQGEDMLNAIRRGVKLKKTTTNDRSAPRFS
- PROTOCOL_TEXT: co-IP
MEASUREMENT_LABEL: pIC50
One number for each entry, as −log10 of the molar value.

Entry under review: GST-MIM-S1 (domain or fragment, murine, UniProt Q8R1S4 18-89, looked up) TIISDMKGSYPVWEDFINKAGKLQSQLRTTVVAAAAFLDAFQKVADMATNTRGGTREIGSALTRMCMRHRSI . Reported pIC50?
6.67
